meta.source: patent US11464770B2

Tested on: breast cancer cell lines (e.g. MDA-MB-231, SK-BR-3, MDA-MB-468, HCC1954)
Assay: Cell based assay, cell viability (CellTiter-Glo), breast cancer cell lines
Conditions: Homo sapiens; Breast cancer cell line HCC1954; 72 hours; CellTiter-Glo; read-out: IC50, HCC1954
PROPERTY_LABEL: IC50

Some entries whose results are on file:
{"columns": ["COMPOUND", "IC50"],
 "data": [
  ["CC(=O)c1c(SCc2cc(F)cc(F)c2)[nH]c2c(Br)ccc(Cl)c2c1=O", "> 2000 nM"],
  ["CC(=O)c1c([S+]([O-])Cc2ccc(S(F)(F)(F)(F)F)cc2)[nH]c2c(Br)ccc(Cl)c2c1=O (stereo not shown)", "> 2000 nM"],
  ["CC(=O)c1c(S/C=C\\C(=O)O)[nH]c2c(Br)ccc(Cl)c2c1=O", "> 2000 nM"]
]}

Please find the next compound below.
IC50 for CC(=O)c1c([S+]([O-])Cc2ccc(F)c(Cl)c2)[nH]c2c(Br)ccc(Cl)c2c1=O (stereo not shown) ?
> 2000 nM

====

Tested on: lung cancer cell lines (e.g. NCI-H23, NCI-H1229)
Assay: Cell based assay, cell viability (CellTiter-Glo), lung cancer cell lines
Settings: Homo sapiens; NCI-H1299 cells; 72 hours treatment; CellTiter-Glo; read-out: IC50, lung cancer cell line NCI-H1299
pIC50: −log10 of the molar value.
PROPERTY_LABEL: pIC50

{"columns": ["COMPOUND", "SYSTEM", "pIC50"],
 "data": [
  ["CC(=O)c1c([S+]([O-])Cc2ccc(C#N)s2)[nH]c2c(Br)ccc(Cl)c2c1=O (stereo not shown) [Compound 98]", "lung cancer cell lines (e.g. NCI-H23, NCI-H1229)", 5.74],
  ["CC(=O)c1c([S+]([O-])Cc2ccc(S(F)(F)(F)(F)F)cc2)[nH]c2c(Br)ccc(Cl)c2c1=O (stereo not shown) [Compound 68]", "lung cancer cell lines (e.g. NCI-H23, NCI-H1229)", 5.91],
  ["CSc1[nH]c2c(Br)ccc(Cl)c2c(=O)c1C(C)=O [Compound 2]", "lung cancer cell lines (e.g. NCI-H23, NCI-H1229)", "< 5.70"],
  ["CC(=O)c1c([S+]([O-])Cc2ccc(C(=O)c3ccccc3)cc2)[nH]c2c(Br)ccc(Cl)c2c1=O (stereo not shown) [Compound 63]", "lung cancer cell lines (e.g. NCI-H23, NCI-H1229)", "< 5.70"],
  ["CSc1c(C(C)=O)c(=O)c2c(Cl)ccc(Br)c2n1C(C)=O [Compound 18]", "lung cancer cell lines (e.g. NCI-H23, NCI-H1229)", "< 5.70"]
]}

pIC50 for CC(=O)c1c([S+]([O-])Cc2c(F)cccc2Cl)[nH]c2c(Br)ccc(Cl)c2c1=O (stereo not shown) [Compound 74] ?
5.85

And CC(=O)c1c(SCc2ccccc2)n(C(=O)c2ccc(Br)cc2)c2c(Br)ccc(Cl)c2c1=O [Compound 23] ?
< 5.70

And CC(=O)c1c([S+]([O-])Cc2ccc([S+]([O-])C(F)(F)F)cc2)[nH]c2c(Br)ccc(Cl)c2c1=O (stereo not shown) [Compound 64] ?
5.87

And CC(=O)c1c([S+]([O-])CC#N)[nH]c2c(Br)ccc(Cl)c2c1=O (stereo not shown) [Compound 65] ?
< 5.70

And Cc1cc(C[S+]([O-])c2[nH]c3c(Br)ccc(Cl)c3c(=O)c2C(=O)C2CC2)no1 (stereo not shown) [Compound 96] ?
5.74

And O=C(c1ccccc1)c1c([S+]([O-])Cc2ccc(S(F)(F)(F)(F)F)cc2)[nH]c2c(F)ccc(F)c2c1=O (stereo not shown) [Compound 87] ?
< 5.70
